# target entity: mouse VISTA (mVISTA) (Mus musculus)
# Construct: expressed in transfected cells; host or cells: Human embryonic kidney 293T cells
# Sequence (Q9D659 33-308): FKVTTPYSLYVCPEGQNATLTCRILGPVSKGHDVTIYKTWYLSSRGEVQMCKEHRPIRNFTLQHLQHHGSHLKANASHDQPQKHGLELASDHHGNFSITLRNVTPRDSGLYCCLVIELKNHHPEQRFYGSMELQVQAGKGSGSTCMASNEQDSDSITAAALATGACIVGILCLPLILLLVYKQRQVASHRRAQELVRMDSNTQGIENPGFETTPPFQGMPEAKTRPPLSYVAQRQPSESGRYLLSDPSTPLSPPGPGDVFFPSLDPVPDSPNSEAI
# assay remarks: Cell-Based Binding High-Content Assay For mVISTA (HC CBA mVISTA)
# condition info: the 20th table, scaffold drawing 23; read-out: HC CBA mVISTA IC50
Positions of bridges follow the written chain, without caps; N, C: chain ends. Non-standard residues stand in square brackets, D forms with d. Residues, ends and D or L forms follow the SMILES beside them. Phe(3,4,5-F3) = N[C@@H](Cc1cc(F)c(F)c(F)c1)C(=O)O; Phe(4-CF3) = N[C@@H](Cc1ccc(C(F)(F)F)cc1)C(=O)O; Phe(4-F) = N[C@@H](Cc1ccc(F)cc1)C(=O)O; Ahp(2) = CCCCC[C@H](N)C(=O)O; NHexGly = CCCCCCNCC(=O)O; Nle = CCCC[C@H](N)C(=O)O
reported property: pIC50
# reply with the number alone; pIC50 is -log10 of concentration in mol/L

Here is how some compounds turned out for pIC50.
compound	data value
CCCCCCN1CC(=O)N[C@@H](Cc2ccc(O)cc2)C(=O)N[C@@H](CC(C)C)C(=O)N[C@@H](CC(N)=O)C(=O)N[C@@H](CCCNC(=N)N)C(=O)N[C@@H](CC(C)C)C(=O)N[C@@H](CCCCC)C(=O)N2CCC[C@H]2C(=O)N[C@@H](C(C)C)C(=O)N[C@@H](C(C)C)C(=O)N[C@H](C(=O)NCC(=O)O)CSCC(=O)N[C@@H](Cc2ccc(C(F)(F)F)cc2)C(=O)N[C@@H](Cc2c[nH]c3ccccc23)C(=O)N[C@@H](CC(=O)O)C1=O [compound 1460] ({CH2CO}-[Phe(4-CF3)]WD[NHexGly]YLNRL[Ahp(2)]PVVCG-OH; thioether N-14)	8.06
CCCCCCN1CC(=O)N[C@@H](Cc2ccc(O)cc2)C(=O)N[C@@H](CCCC)C(=O)N[C@@H](CC(N)=O)C(=O)N[C@@H](CCCNC(=N)N)C(=O)N[C@@H](CC(C)C)C(=O)N[C@@H](CCCCC)C(=O)N2CCC[C@H]2C(=O)N[C@@H](C(C)C)C(=O)N[C@@H](CO)C(=O)N[C@H](C(=O)NCC(=O)O)CSCC(=O)N[C@@H](Cc2ccc(F)cc2)C(=O)N[C@@H](Cc2ccc(O)cc2)C(=O)N[C@@H](CC(=O)O)C1=O [compound 1462] ({CH2CO}-[Phe(4-F)]YD[NHexGly]Y[Nle]NRL[Ahp(2)]PVSCG-OH; thioether N-14)	7.65
CCCCCCN1CC(=O)N[C@@H](Cc2ccc(O)cc2)C(=O)N[C@@H](C(C)C)C(=O)NCC(=O)N[C@@H](CCCNC(=N)N)C(=O)N[C@@H](CC(C)C)C(=O)N[C@@H](CCCCC)C(=O)N2CCC[C@H]2C(=O)N[C@@H](C(C)C)C(=O)N[C@@H](CC(=O)O)C(=O)N[C@H](C(=O)NCC(=O)O)CSCC(=O)N[C@@H](Cc2ccc(OC)cc2)C(=O)N[C@@H](Cc2ccc(O)cc2)C(=O)N[C@@H](CC(=O)O)C1=O [compound 1478] ({CH2CO}-Y(Me)YD[NHexGly]YVGRL[Ahp(2)]PVDCG-OH; thioether N-14)	7.92

// field: pIC50; key: CCCCCCN1CC(=O)N[C@@H](Cc2ccc(O)cc2)C(=O)N[C@@H](CCCC)C(=O)N[C@@H](CC(N)=O)C(=O)N[C@@H](CCCNC(=N)N)C(=O)N[C@@H](CC(C)C)C(=O)N[C@@H](CCCCC)C(=O)N2CCC[C@H]2C(=O)N[C@@H](C(C)C)C(=O)N[C@@H](CC(=O)O)C(=O)N[C@H](C(=O)NCC(=O)O)CSCC(=O)N[C@@H](Cc2ccc(OCC)cc2)C(=O)N[C@@H](Cc2c[nH]c3ccccc23)C(=O)N[C@@H](CC(=O)O)C1=O [compound 1476] ({CH2CO}-Y(Et)WD[NHexGly]Y[Nle]NRL[Ahp(2)]PVDCG-OH; thioether N-14) ; value = 7.44

// field: pIC50; key: CCCCCCN1CC(=O)N[C@@H](Cc2ccc(O)cc2)C(=O)N[C@@H](CCCC)C(=O)N[C@@H](CC(N)=O)C(=O)N[C@@H](CCCNC(=N)N)C(=O)N[C@@H](CC(C)C)C(=O)N[C@@H](CCCCC)C(=O)N2CCC[C@H]2C(=O)N[C@@H](C(C)C)C(=O)N[C@@H](CC(=O)O)C(=O)N[C@H](C(=O)NCC(=O)O)CSCC(=O)N[C@@H](Cc2cc(F)c(F)c(F)c2)C(=O)N[C@@H](Cc2ccc(O)cc2)C(=O)N[C@@H](CC(=O)O)C1=O [compound 1457] ({CH2CO}-[Phe(3,4,5-F3)]YD[NHexGly]Y[Nle]NRL[Ahp(2)]PVDCG-OH; thioether N-14) ; value = 7.94
